# System: satellite-like cells (Pax7-positive cells) in hMP
# procedure-summary: Myotube assay: Pax7-positive (satellite-like) cell quantification
# Type: cell-based, human
# Parameters: key: −: Depletes the pool of cells, while positively affects the myotubes; +: Maintains or increases the pool of cells, with at least 1 of the highest concentration known to be cytotoxic; ++: Maintains or increases the pool of cells, without any toxicity
# applied-conditions: myotube assay, compounds incubated 3 days
quantity-measured: Pax7% (pool of Pax7-positive cells)

O=C(Nc1ccc(Oc2ccnc3[nH]c(=O)cnc23)cc1F)Nc1c(-c2ccccc2)nn2c1CCC2 ... ++
Cc1nc2c(Oc3ccc(NC(=O)Nc4cc(C(C)(C)C)nn4-c4ccccc4)c(F)c3)ccnc2c(=O)[nH]1 ... ++
CCOC(=O)Nc1cc(Oc2ccc(NC(=O)Nc3cc(C(C)(C)C)no3)c3ccccc23)ccn1 ... +
CSc1cc(Oc2cccc3[nH]c(=O)cnc23)ccc1NC(=O)Nc1cc(C(C)(C)C)nn1-c1ccccc1 ... ++
O=C(Nc1ccc(Oc2ccnc3[nH]c(=O)cnc23)cc1F)Nc1cc(C2CC2)nn1-c1ccccc1 [(e)] ... ++
CSc1cc(Oc2ccnc3[nH]c(=O)cnc23)ccc1NC(=O)Nc1cc(C(C)(C)C)nn1-c1ccccn1 ... ++
CC(C)(C)c1cc(NC(=O)Nc2ccc(Oc3ccnc4[nH]c(=O)cnc34)cc2F)n(-c2ccc3ncccc3c2)n1 ... +
CC(C)(C)c1cc(NC(=O)Nc2ccc(Oc3ccnc4[nH]c(=O)cnc34)cc2Cl)n(-c2ccccc2)n1 ... +
CSc1cc(Oc2ccnc3[nH]c(=O)cnc23)ccc1NC(=O)Nc1cc(C(C)(C)C)nn1-c1ccc(OCCN2CCCCC2)cc1 ... +
CC(C)(C)c1cc(NC(=O)Nc2cc(Oc3ccnc4[nH]c(=O)cnc34)ccc2F)n(-c2ccccc2)n1 ... ++
CSc1cc(Oc2ccnc3c2CCC(=O)N3)ccc1NC(=O)Nc1cncc(C(F)(F)F)c1 ... −
CSc1cc(Oc2ccnc3c2OCC(=O)N3)ccc1NC(=O)Nc1cc(C(C)(C)C)nn1-c1ccccc1 ... +
CSc1cc(Oc2ccnc3c2CCC(=O)N3)ccc1NC(=O)Nc1cc(C(C)(C)C)nn1-c1ccccc1 ... ++
